biological target: IKZF2 (Homo sapiens (Human), UniProt Q96SW2+Q9UKS7); assay: In vitro IKZF2 Western Blot Assay in Jurkat cells; format: cell-based; settings: 24 hrs, 10 μM, read-out: IKZF2 degradation (%) @ μM 10
Sequence (Q9UKS7 whole entry): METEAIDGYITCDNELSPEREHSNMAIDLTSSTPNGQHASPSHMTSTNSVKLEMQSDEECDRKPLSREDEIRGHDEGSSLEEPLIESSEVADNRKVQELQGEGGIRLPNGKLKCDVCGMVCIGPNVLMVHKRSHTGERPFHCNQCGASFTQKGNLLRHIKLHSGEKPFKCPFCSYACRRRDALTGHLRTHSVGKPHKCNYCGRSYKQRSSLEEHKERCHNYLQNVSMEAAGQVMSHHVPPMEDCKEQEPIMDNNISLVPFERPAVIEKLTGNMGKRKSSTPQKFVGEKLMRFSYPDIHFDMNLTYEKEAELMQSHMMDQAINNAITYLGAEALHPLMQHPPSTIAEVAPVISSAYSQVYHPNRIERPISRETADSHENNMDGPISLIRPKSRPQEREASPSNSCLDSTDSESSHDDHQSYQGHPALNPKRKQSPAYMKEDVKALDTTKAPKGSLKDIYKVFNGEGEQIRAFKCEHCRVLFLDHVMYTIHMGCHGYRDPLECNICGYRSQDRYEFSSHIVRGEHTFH
Sequence (Q96SW2 whole entry): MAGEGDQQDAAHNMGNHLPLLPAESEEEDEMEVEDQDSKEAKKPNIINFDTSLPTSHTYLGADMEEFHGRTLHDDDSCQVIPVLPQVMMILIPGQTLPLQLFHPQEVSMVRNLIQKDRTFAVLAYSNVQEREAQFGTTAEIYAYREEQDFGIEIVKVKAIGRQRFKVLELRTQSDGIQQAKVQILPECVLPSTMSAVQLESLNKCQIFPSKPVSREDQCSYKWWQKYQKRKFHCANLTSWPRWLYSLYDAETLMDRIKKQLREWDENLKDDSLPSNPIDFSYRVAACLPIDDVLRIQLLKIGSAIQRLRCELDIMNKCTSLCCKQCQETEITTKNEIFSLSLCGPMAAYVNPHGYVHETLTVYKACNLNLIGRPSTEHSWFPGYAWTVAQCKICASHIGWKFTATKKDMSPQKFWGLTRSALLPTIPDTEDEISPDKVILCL
Sequence (Q16531 2-1140 partner): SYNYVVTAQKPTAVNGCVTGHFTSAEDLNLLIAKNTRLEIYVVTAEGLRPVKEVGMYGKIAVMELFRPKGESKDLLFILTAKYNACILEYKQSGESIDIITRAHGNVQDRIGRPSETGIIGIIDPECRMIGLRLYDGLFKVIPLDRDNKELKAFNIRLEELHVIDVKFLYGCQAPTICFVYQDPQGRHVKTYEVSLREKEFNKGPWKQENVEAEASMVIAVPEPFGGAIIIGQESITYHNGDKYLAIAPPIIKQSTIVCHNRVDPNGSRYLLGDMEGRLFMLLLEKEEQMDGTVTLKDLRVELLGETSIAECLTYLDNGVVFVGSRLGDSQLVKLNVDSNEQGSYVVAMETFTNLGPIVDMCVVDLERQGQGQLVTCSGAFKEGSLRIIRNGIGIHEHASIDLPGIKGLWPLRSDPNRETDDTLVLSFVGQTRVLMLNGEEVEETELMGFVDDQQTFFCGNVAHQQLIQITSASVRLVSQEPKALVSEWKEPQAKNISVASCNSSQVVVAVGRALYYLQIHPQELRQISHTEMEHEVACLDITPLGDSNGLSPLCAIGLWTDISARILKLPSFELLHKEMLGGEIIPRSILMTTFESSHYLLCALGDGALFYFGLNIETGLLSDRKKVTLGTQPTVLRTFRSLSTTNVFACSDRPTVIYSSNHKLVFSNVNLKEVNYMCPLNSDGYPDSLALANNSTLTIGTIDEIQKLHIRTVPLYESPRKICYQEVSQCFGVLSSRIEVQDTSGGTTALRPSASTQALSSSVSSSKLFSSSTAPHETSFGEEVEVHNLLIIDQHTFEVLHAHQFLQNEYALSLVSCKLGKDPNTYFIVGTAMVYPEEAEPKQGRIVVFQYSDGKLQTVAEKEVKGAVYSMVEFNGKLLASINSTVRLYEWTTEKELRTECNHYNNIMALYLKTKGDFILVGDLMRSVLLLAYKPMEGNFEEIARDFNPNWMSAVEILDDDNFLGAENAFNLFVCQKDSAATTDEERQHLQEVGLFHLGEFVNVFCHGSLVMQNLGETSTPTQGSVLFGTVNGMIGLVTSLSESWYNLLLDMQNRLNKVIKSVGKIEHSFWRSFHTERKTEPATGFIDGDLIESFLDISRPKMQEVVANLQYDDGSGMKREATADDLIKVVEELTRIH

{"molecule": "CC(C)(NCc1cc(-c2ccc3c(c2)CN(C2CCC(=O)NC2=O)C3=O)c2nccn2c1)c1ccccc1 (stereo not shown)", "inhibition at 10 µM": "> 50%"}
{"molecule": "O=C1CCC(N2Cc3cc(-c4cc(CNCCc5ccccc5C(F)(F)F)cn5ccnc45)ccc3C2=O)C(=O)N1 (stereo not shown)", "inhibition at 10 µM": "< 30%"}
{"molecule": "O=C1CCC(N2Cc3cc(-c4cc(CNCCc5ccccc5Cl)cc5cncn45)ccc3C2=O)C(=O)N1 (stereo not shown)", "inhibition at 10 µM": "> 50%"}
{"molecule": "O=C1CCC(N2Cc3cc(-c4cc(CNCCc5ccc(Cl)cc5Cl)cn5ccnc45)ccc3C2=O)C(=O)N1 (stereo not shown)", "inhibition at 10 µM": "30 to 50%"}

---

biological target: IKZF2 (Homo sapiens (Human), UniProt Q96SW2+Q9UKS7); assay: In vitro IKZF2 FACS Assay in Jurkat cells; format: cell-based; details: 24 hrs, half maximal degradation concentration
observable: DC50

{"molecule": "Cn1cnc2c(-c3ccc4c(c3)CN(C3CCC(=O)NC3=O)C4=O)cc(CNCCc3ccccc3Cl)cc21 (stereo not shown)", "observable": "DC50", "result": "> 1000 nM"}
{"molecule": "O=C1CCC(N2Cc3cc(-c4cc(CN5CCC5)cc5cncn45)ccc3C2=O)C(=O)N1 (stereo not shown)", "observable": "DC50", "result": "100 to 1000 nM"}
{"molecule": "CC(C)Oc1ccnc2c(CN3CCCC3)cc(-c3ccc4c(c3)CN(C3CCC(=O)NC3=O)C4=O)nc12 (stereo not shown)", "observable": "DC50", "result": "10 to 100 nM"}
{"molecule": "Nc1n[nH]c2c(CN3CCCC3)cc(-c3ccc4c(c3)CN(C3CCC(=O)NC3=O)C4=O)nc12 (stereo not shown)", "observable": "DC50", "result": "1 to 10 nM"}

---

biological target: IKZF2 (Homo sapiens (Human), UniProt Q96SW2+Q9UKS7); experiment: In vitro IKZF2 FACS Assay in Jurkat cells; type: cell-based; conditions: 24 hrs, maximal degradation percentage

{"molecule": "CN1CC(n2ccc3c(CN4CCCC4)cc(-c4ccc5c(c4F)CN(C4CCC(=O)NC4=O)C5=O)nc32)C1 (stereo not shown) [Example 260]", "Dmax": "> 80%"}
{"molecule": "CC(C)Nc1n[nH]c2c(CN3CCC(F)CC3)cc(-c3ccc4c(c3F)CN(C3CCC(=O)NC3=O)C4=O)nc12 (stereo not shown) [Example 282]", "Dmax": "> 80%"}
{"molecule": "CC(C)(NCc1cc(-c2ccc3c(c2)CN(C2CCC(=O)NC2=O)C3=O)n2cncc2c1)c1ccccc1 (stereo not shown) [Example 18]", "Dmax": "40 to 60%"}
{"molecule": "O=C1CCC(N2Cc3cc(-c4cc(CNCc5ccccc5)cc5cncn45)ccc3C2=O)C(=O)N1 (stereo not shown) [Example 13]", "Dmax": "20 to 40%"}

---

Biological target: IKZF2 (Homo sapiens (Human), UniProt Q96SW2+Q9UKS7)
Assay: In vitro IKZF2 HiBit Assay (HEK293T Flp-in-HiBiT cells)
Type: cell-based
Details: HEK293T Flp-in-HiBiT cells, 6 hrs incubation; read-out: IKZF2 HiBit DC50
Procedure: In Vitro IKZF2 HiBit Assay The HiBiT protein tagging system was applied to modified HEK293T Flp-in-HiBiT cells (polyclone) via a CRISPR/Cas9-mediated insertion of the HiBiT peptide tag (Promega™) to the N-terminus of the IKZF2 gene locus (Neon™ transfection system). Test and reference compounds are diluted from 1 mM at 3 folds for 11 doses. […] The amount of Nano-Glo® HiBiT lytic reagent needed to perform the desired experiments is calculated. […] After briefly centrifuge, the plate is read on Envision. […]
Each entry below lists one item and its recorded DC50 value.

{"molecule": "CNc1[nH]nc2c(CN3CCCC3)cc(-c3ccc4c(c3F)CN(C3CCC(=O)NC3=O)C4=O)nc12 (stereo not shown)", "DC50": "< 1 nM"}
{"molecule": "Cn1ccc2c(CN3Cc4ccccc4C3)cc(-c3ccc4c(c3)CN(C3CCC(=O)NC3=O)C4=O)nc21 (stereo not shown)", "DC50": "1 to 10 nM"}
{"molecule": "O=C1CCC(N2Cc3c(ccc(-c4cc(CN5CCCC5)c5ccn(C6COC6)c5n4)c3Cl)C2=O)C(=O)N1 (stereo not shown)", "DC50": "1 to 10 nM"}
{"molecule": "CC(C)n1ccc2c(CN3CCCC3)cc(-c3ccc4c(c3)CN(C3CCC(=O)NC3=O)C4=O)nc21 (stereo not shown)", "DC50": "1 to 10 nM"}
{"molecule": "Cn1ccc2c(CN3CCn4nccc4C3)cc(-c3ccc4c(c3)CN(C3CCC(=O)NC3=O)C4=O)nc21 (stereo not shown)", "DC50": "10 to 100 nM"}
{"molecule": "O=C1CCC(N2Cc3cc(-c4cc(CN5CCC(F)CC5)c5ccn(C6COC6)c5n4)ccc3C2=O)C(=O)N1 (stereo not shown)", "DC50": "1 to 10 nM"}
{"molecule": "Cn1ccc2c(C(=O)N3CCCC3)cc(-c3ccc4c(c3)CN(C3CCC(=O)NC3=O)C4=O)nc21 (stereo not shown)", "DC50": "100 to 1000 nM"}

---

Molecular target: IKZF2 (Homo sapiens (Human), UniProt Q96SW2+Q9UKS7)
Assay: In vitro IKZF2 HiBit Assay (HEK293T Flp-in-HiBiT cells)
Format: cell-based
Conditions: HEK-293T; HEK293T Flp-in-HiBiT cells, 6 hrs incubation; read-out: IKZF2 HiBit Dmax (%)
Procedure: In Vitro IKZF2 HiBit Assay The HiBiT protein tagging system was applied to modified HEK293T Flp-in-HiBiT cells (polyclone) via a CRISPR/Cas9-mediated insertion of the HiBiT peptide tag (Promega™) to the N-terminus of the IKZF2 gene locus (Neon™ transfection system). Test and reference compounds are diluted from 1 mM at 3 folds for 11 doses. […] The amount of Nano-Glo® HiBiT lytic reagent needed to perform the desired experiments is calculated. […] After briefly centrifuge, the plate is read on Envision. […]
Each record here notes measured Dmax.

{"molecule": "O=C1CCC(N2Cc3cc(-c4cc(CN5CCC(CO)CC5)c5ccn(C6CC6)c5n4)ccc3C2=O)C(=O)N1 (stereo not shown)", "system under test": "IKZF2 (Homo sapiens (Human), UniProt Q96SW2+Q9UKS7)", "Dmax": "> 80%"}
{"molecule": "Cn1ccc2c(Cn3ccnc3)cc(-c3ccc4c(c3)CN(C3CCC(=O)NC3=O)C4=O)nc21 (stereo not shown)", "system under test": "IKZF2 (Homo sapiens (Human), UniProt Q96SW2+Q9UKS7)", "Dmax": "> 80%"}
{"molecule": "Cn1ccc2nc(-c3ccc4c(c3)CN(C3CCC(=O)NC3=O)C4=O)cc(CN3CCC3)c21 (stereo not shown)", "system under test": "IKZF2 (Homo sapiens (Human), UniProt Q96SW2+Q9UKS7)", "Dmax": "> 80%"}
{"molecule": "CC(C)Nc1n[nH]c2c(CN3CCCC3)cc(-c3ccc4c(c3)CN(C3CCC(=O)NC3=O)C4=O)nc12 (stereo not shown)", "system under test": "IKZF2 (Homo sapiens (Human), UniProt Q96SW2+Q9UKS7)", "Dmax": "> 80%"}
{"molecule": "O=C1CCC(N2Cc3cc(-c4cc(CN5CCCC5)c5nccc(OCCO)c5n4)ccc3C2=O)C(=O)N1 (stereo not shown)", "system under test": "IKZF2 (Homo sapiens (Human), UniProt Q96SW2+Q9UKS7)", "Dmax": "20 to 40%"}
{"molecule": "Nc1n[nH]c2c(CN3CCC(F)C3)cc(-c3ccc4c(c3)CN(C3CCC(=O)NC3=O)C4=O)nc12 (stereo not shown)", "system under test": "IKZF2 (Homo sapiens (Human), UniProt Q96SW2+Q9UKS7)", "Dmax": "60 to 80%"}
{"molecule": "CCn1ccc2c(CN3CCC3)cc(-c3ccc4c(c3)CN(C3CCC(=O)NC3=O)C4=O)nc21 (stereo not shown)", "system under test": "IKZF2 (Homo sapiens (Human), UniProt Q96SW2+Q9UKS7)", "Dmax": "> 80%"}

---

biological target: IKZF2 (Homo sapiens (Human), UniProt Q96SW2+Q9UKS7); assay: In vitro IKZF2 HiBit Assay (HEK293T Flp-in-HiBiT cells); format: cell-based; details: HEK-293T; HEK293T Flp-in-HiBiT cells, 6 hrs incubation; read-out: IKZF2 HiBit Dmax (%)

{"compound": "O=C1CCC(N2Cc3cc(-c4cc(CN5CCCC5)c5ccn(-c6ccccc6)c5n4)ccc3C2=O)C(=O)N1 (stereo not shown)", "Dmax": "60 to 80%"}
{"compound": "O=C1CCC(N2Cc3cc(-c4cc(CN5CCCC5)c5c(n4)CCCC5)ccc3C2=O)C(=O)N1 (stereo not shown)", "Dmax": "> 80%"}
{"compound": "O=C1CCC(N2Cc3cc(-c4cc(CN5CC(O)C5)c5cc[nH]c5n4)ccc3C2=O)C(=O)N1 (stereo not shown)", "Dmax": "60 to 80%"}
{"compound": "Cc1cn(C2COC2)c2nc(-c3ccc4c(c3)CN(C3CCC(=O)NC3=O)C4=O)cc(CN3CCCC3)c12 (stereo not shown)", "Dmax": "> 80%"}
{"compound": "CS(=O)(=O)Nc1n[nH]c2c(CN3CCCC3)cc(-c3ccc4c(c3F)CN(C3CCC(=O)NC3=O)C4=O)nc12 (stereo not shown)", "Dmax": "< 20%"}
{"compound": "CC(C)Nc1n[nH]c2c(CN3CCC(C(F)(F)F)CC3)cc(-c3ccc4c(c3F)CN(C3CCC(=O)NC3=O)C4=O)nc12 (stereo not shown)", "Dmax": "60 to 80%"}
{"compound": "Cc1cc(-c2ccc3c(c2)CN(C2CCC(=O)NC2=O)C3=O)nc2nc(CN3CCCC3)oc12 (stereo not shown)", "Dmax": "60 to 80%"}
